tested on: Rattus norvegicus; assay: Dose normalized AUC in rat at 3 umol/kg, iv; type: ADME, organism-based; settings: in vivo
This section presents compounds with their documented AUC/dose values.
Please answer using a numeric value trailed by its unit.

Examples from the recorded data:
COc1ncc(-c2cccc3c2C[C@H](NC(=O)c2ccc(OCCC(F)(F)F)nc2)CO3)cn1    1.2 kg·h/L
Cc1cnc(-c2c(F)ccc(F)c2CCNC(=O)c2ccc(COCC(F)(F)F)nc2)cn1    0.68 kg·h/L
COc1cnc(-c2c(C)ccc(F)c2CCNC(=O)c2ccc(COCC(F)(F)F)nc2)cn1    0.91 kg·h/L
COc1cnc(-c2ccccc2C(F)(F)CNC(=O)c2ccc(COCC(F)(F)F)nc2)cn1    1.5 kg·h/L
COc1ncc(-c2ccccc2C(F)(F)CNC(=O)c2ccc(COCC(F)(F)F)nc2)cn1    0.71 kg·h/L
COc1ncc(-c2cccc(C)c2CCNC(=O)c2ccc(OCCC(F)(F)F)nc2)cn1    0.33 kg·h/L

Next item in the queue.
Prompt line: Given `COc1cnc(-c2c(F)ccc(F)c2CCNC(=O)c2ccc(COCC(F)(F)F)nc2)cn1` , state its recorded AUC/dose.
Response line: 1.3 kg·h/L

----------
test system: Rattus norvegicus; assay: Dose normalised AUC in rat at 10 umol/kg, po; format: ADME, organism-based; settings: in vivo
Entries whose AUC/dose is below 0.05 kg·h/L take Criterion met; entries at or above 0.05 kg·h/L take Criterion not met.

Prompt line: Hello, I'm reviewing records and need to know if AUC/dose of `COc1cnc(-c2ccccc2C(F)(F)CNC(=O)c2ccc(COCC(F)(F)F)nc2)cn1` is below 0.05 kg·h/L. Could you check?
Response line: Criterion not met

----------
test: Tmax in rat at 10 umol/kg, po; format: ADME, organism-based; conditions: in vivo
Threshold check on Tmax: strictly below 40 min is yes (1); on or above 40 min is no (0).

COc1ncc(-c2cccc3c2C[C@H](NC(=O)c2ccc(OCCC(F)(F)F)nc2)CO3)cn1    no (0)
Cc1cnc(-c2c(F)ccc(F)c2CCNC(=O)c2ccc(COCC(F)(F)F)nc2)cn1    yes (1)
COc1ncc(-c2ccccc2C(F)(F)CNC(=O)c2ccc(COCC(F)(F)F)nc2)cn1    no (0)
COc1cnc(-c2c(C)ccc(F)c2CCNC(=O)c2ccc(COCC(F)(F)F)nc2)cn1    no (0)

Prompt line: Would you kindly verify if Tmax of `COc1cnc(-c2ccccc2C(F)(F)CNC(=O)c2ccc(COCC(F)(F)F)nc2)cn1` is strictly less than 40 min?
Response line: yes (1)

Prompt line: hey, is Tmax for `COc1ncc(-c2cccc(C)c2CCNC(=O)c2ccc(OCCC(F)(F)F)nc2)cn1` lower than 40 min or not?
Response line: yes (1)

----------
test system: Liver microsomes; assay: Metabolic stability in human liver microsomes by glutathione trapping assay; assay type: ADME, Microsome
result type: Stability

Examples from the recorded data:
COc1ncc(-c2cccc3c2C[C@H](NC(=O)c2ccc(OCCC(F)(F)F)nc2)CO3)cn1    Stable
Cc1ncc(-c2ccccc2CCNC(=O)c2ccc(OCCC(F)(F)F)nc2)cn1    Unstable
COc1cnc(-c2cccc(F)c2C(F)(F)CNC(=O)c2ccc(COCC(F)(F)F)nc2)cn1    Stable
COc1cnc(-c2c(F)ccc(F)c2CCNC(=O)c2ccc(COCC(F)(F)F)nc2)cn1    Stable
COc1cnc(-c2ccccc2C(F)(F)CNC(=O)c2ccc(COCC(F)(F)F)nc2)cn1    Stable
COc1cnc(-c2ccccc2CCNC(=O)c2ccc(OCCC(F)(F)F)nc2)cn1    Unstable
O=C(NCCc1ccccc1-c1cccnc1)c1ccc(OCCC(F)(F)F)nc1    Unstable
COc1ncc(-c2ccccc2C(F)(F)CNC(=O)c2ccc(COCC(F)(F)F)nc2)cn1    Stable
COc1ncc(-c2cccc(Cl)c2CCNC(=O)c2ccc(OCCC(F)(F)F)nc2)cn1    Unstable
Cc1ncc(-c2ccccc2CCNC(=O)c2ccc(COCC(F)(F)F)nc2)cn1    Unstable

Prompt line: # returns recorded Stability (system: Liver microsomes) for `Cc1cnc(-c2c(F)ccc(F)c2CCNC(=O)c2ccc(COCC(F)(F)F)nc2)cn1`
Response line: Stable

Prompt line: Request - read-out Stability | tested on Liver microsomes | compound `COc1ncc(-c2cccnc2CCNC(=O)c2ccc(OCCC(F)(F)F)nc2)cn1`
Response line: Stable

Prompt line: Lookup: Stability / Liver microsomes / `COc1ncc(-c2c(C)ccc(F)c2CCNC(=O)c2ccc(OCC(F)(F)F)nc2)cn1`
Response line: Stable

Prompt line: What measured Stability is associated with `COc1ncc(-c2ccc(C)nc2CCNC(=O)c2ccc(OCCC(F)(F)F)nc2)cn1` on Liver microsomes?
Response line: Stable

----------
assay: Volume of distribution at steady state in rat at 3 umol/kg, iv; format: ADME, organism-based; settings: in vivo, read-out: Vdss
result type: Vd

Sample records with Vd:
COc1ncc(-c2cccc(C)c2CCNC(=O)c2ccc(OCCC(F)(F)F)nc2)cn1    2.4 L/kg
COc1ncc(-c2ccccc2C(F)(F)CNC(=O)c2ccc(COCC(F)(F)F)nc2)cn1    1.4 L/kg
COc1cnc(-c2ccccc2C(F)(F)CNC(=O)c2ccc(COCC(F)(F)F)nc2)cn1    0.72 L/kg

Prompt line: Name the reported Vd value associated with the compound `COc1cnc(-c2c(F)ccc(F)c2CCNC(=O)c2ccc(COCC(F)(F)F)nc2)cn1`
Response line: 0.85 L/kg

Prompt line: Query (compound): `COc1ncc(-c2cccc3c2C[C@H](NC(=O)c2ccc(OCCC(F)(F)F)nc2)CO3)cn1` ; field requested: Vd
Response line: 7.2 L/kg

Prompt line: # query: Vd of entry `COc1cnc(-c2c(C)ccc(F)c2CCNC(=O)c2ccc(COCC(F)(F)F)nc2)cn1`
Response line: 1.5 L/kg

Prompt line: Quick one: Vd of `Cc1cnc(-c2c(F)ccc(F)c2CCNC(=O)c2ccc(COCC(F)(F)F)nc2)cn1` ?
Response line: 1.74 L/kg

----------
assay: Cmax in rat at 10 umol/kg, po; assay type: ADME, organism-based; set-up: dose 10 umol/kg, route oral; settings: in vivo
result type: log10 Cmax (log10 of the value in nM)
Please note: log10 values; quantity Cmax; unit nM.

Prompt line: For `COc1ncc(-c2ccccc2C(F)(F)CNC(=O)c2ccc(COCC(F)(F)F)nc2)cn1` , what is its reported log10 Cmax?
Response line: 2.92

Prompt line: I would be grateful if you could share the reported log10 Cmax for `COc1cnc(-c2c(F)ccc(F)c2CCNC(=O)c2ccc(COCC(F)(F)F)nc2)cn1` .
Response line: 2.20

Prompt line: Which log10 Cmax reading was recorded for the compound `COc1cnc(-c2c(C)ccc(F)c2CCNC(=O)c2ccc(COCC(F)(F)F)nc2)cn1` ?
Response line: 2.72

Prompt line: What does the record list as log10 Cmax for `COc1ncc(-c2cccc(C)c2CCNC(=O)c2ccc(OCCC(F)(F)F)nc2)cn1` ?
Response line: 1.30

Prompt line: GET /values?readout=log10 Cmax&item= `Cc1cnc(-c2c(F)ccc(F)c2CCNC(=O)c2ccc(COCC(F)(F)F)nc2)cn1`
Response line: 2.40

Prompt line: Form field: reported log10 Cmax of `COc1cnc(-c2ccccc2C(F)(F)CNC(=O)c2ccc(COCC(F)(F)F)nc2)cn1`
Response line: 3.15

Prompt line: What does the record list as log10 Cmax for `COc1ncc(-c2cccc3c2C[C@H](NC(=O)c2ccc(OCCC(F)(F)F)nc2)CO3)cn1` ?
Response line: 2.36

----------
test system: Liver microsomes; test: Intrinsic clearance in rat liver microsomes; format: ADME, Microsome
result type: log10 of CLH (log10 of the value in µL/min/µg)
Heads up, the numbers here are log10 of CLH in µL/min/µg units.

COc1ncc(-c2cccc(C)c2CCNC(=O)c2ccc(OCCC(F)(F)F)nc2)cn1    1.51

Next compound, log10 of CLH to be filled in.
Prompt line: Sample `COc1ncc(-c2c(C)ccc(F)c2CCNC(=O)c2ccc(OCCC(F)(F)F)nc2)cn1` — what was its log10 of CLH?
Response line: 2.36

----------
# CLH per entry
system: Liver microsomes; experiment: Intrinsic clearance in human liver microsomes; format: ADME, Microsome

Some molecules with recorded CLH:
COc1ncc(-c2cccnc2C(C)CNC(=O)c2ccc(OCCC(F)(F)F)nc2)cn1 (stereo unspecified)    < 10 µL/min/µg
COc1ncc(-c2ccccc2C(F)(F)CNC(=O)c2ccc(COCC(F)(F)F)nc2)cn1    < 10 µL/min/µg
COc1cnc(-c2ccccc2C(F)(F)CNC(=O)c2ccc(COCC(F)(F)F)nc2)cn1    < 10 µL/min/µg
COc1ncc(-c2ccc(C)nc2CCNC(=O)c2ccc(OCCC(F)(F)F)nc2)cn1    < 10 µL/min/µg
COc1ncc(-c2cc(C)cnc2CCNC(=O)c2ccc(COCC(F)(F)F)nc2)cn1    < 10 µL/min/µg

Prompt line: Field request: CLH | item: `COc1ncc(-c2cccc(OC)c2CCNC(=O)c2ccc(OCCC(F)(F)F)nc2)cn1`
Response line: 45 µL/min/µg
